Hi there, I'd appreciate the recorded SPOT signal as a fraction of Bim BH3's signal on the same receptor and array for every entry that follows.
Molecular target: T1, Bfl-1, Q16548
T1 chain: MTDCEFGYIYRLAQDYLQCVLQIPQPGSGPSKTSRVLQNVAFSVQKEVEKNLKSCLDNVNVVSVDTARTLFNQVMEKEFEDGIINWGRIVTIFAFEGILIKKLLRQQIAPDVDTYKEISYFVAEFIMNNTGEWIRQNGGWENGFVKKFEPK
Experiment: peptide SPOT array, c-Myc-tagged receptor at 1 uM or 100 nM, anti-c-Myc-Cy3

Solved entries:
INSERT INTO measurements (binder, value_measured) VALUES
  ('SGLPGLSSVDINNFLDSINESEGIPL [MKI67]', 0.04),
  ('AFGLGDLPNLLGLVLDQLGDTERKRR [ADAMTS14]', 0.05),
  ('LLDFFMVSILFSKLGDLLHKLQFVLT [PCNXL2]', 0.06),
  ('DISLSNSGFKLVNFGCDYHQYRDKFS [PION]', 0.38),
  ('VDSIRPKCQELRHLLDQFSAEIARRR [MCF2L]', 0.27);

Provide the reported SPOT signal as a fraction of Bim BH3's signal on the same receptor and array of each entry below, same order.
1. TSQTEGLSRLLRQHAEDLNSGPLSKL [FES]
2. FSKREKLVEILRNILDERTMVFVETK [DDX4]
3. FTGNNTAVQELKRVSEQFTATFRRKA [TUBB4Q]
4. HHSSQEMSSEDREYADSFGKCPGGRN [PCYT2]
5. GVAASDFIRSLDHCGDLALEGVFSHK [NLRC4]
6. WTLFVYTKGNDRMIGDDLVNSYHLLL [RBL1]
7. CHGLRELALNDHLLSDELLLALSSEK [FBXL3]

Result ::
1. 0.05
2. 0.08
3. 0.8
4. 0.03
5. 0.01
6. 0.05
7. 0.04

# per-item lookup of SPOT signal as a fraction of Bim BH3's signal on the same receptor and array; items listed below
1. DISALTASNLLKKYAEKYSGILEGPV [FIGN]
2. SHFVACMTAILNQMLDQHYSFYIETF [DOCK2]

Result ::
0.33
0.06
